- STUDY SYSTEM: Protein cereblon/B-cell lymphoma 6 protein (Homo sapiens, UniProt P41182+Q96SW2)
- Sequence (Q96SW2 whole entry, looked up, other chains not shown): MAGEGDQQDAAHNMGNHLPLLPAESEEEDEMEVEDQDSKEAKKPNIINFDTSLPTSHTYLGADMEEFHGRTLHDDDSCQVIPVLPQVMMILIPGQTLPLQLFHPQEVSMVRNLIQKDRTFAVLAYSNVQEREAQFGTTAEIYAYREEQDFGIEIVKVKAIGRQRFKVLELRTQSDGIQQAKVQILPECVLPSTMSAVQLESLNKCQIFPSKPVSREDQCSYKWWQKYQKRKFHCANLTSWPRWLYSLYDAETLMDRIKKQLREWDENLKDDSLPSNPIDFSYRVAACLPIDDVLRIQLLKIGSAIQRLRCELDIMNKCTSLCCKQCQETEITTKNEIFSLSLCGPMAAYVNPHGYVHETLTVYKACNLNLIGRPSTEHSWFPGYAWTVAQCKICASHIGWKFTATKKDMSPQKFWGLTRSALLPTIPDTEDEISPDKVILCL
- TEST DESCRIPTION: PROTAC activity at CRBN/N-terminal HiBiT tagged BCL6 in human HT-1080 cells assessed as induction of BCL6 degradation incubated for 5 hrs by NANO-GLO HiBiT Lytic reagent based luminescence plate reader analysis
pEC50: −log10 of the molar value.
REPORTED ENDPOINT: pEC50

In one line, give reported pEC50 of the entry C[C@H](C1CCN(c2ncc(Cl)c(Nc3ccc4c(c3)c3c(c(=O)n4C)OCC(F)(F)[C@H](C4CC4)N3)n2)CC1)C1CCN(c2cccc3c(C4CCC(=O)NC4=O)nn(C)c23)CC1 (stereo partly specified) .
≥ 7.60
